- Tested on: E. coli WT
- EXPERIMENT_DESCRIPTION: MIC, microbroth dilution susceptibility assay
- Type: cell-based
- CONDITION_SET: Escherichia coli; large panel, Table 2a
ATTRIBUTE_MEASURED: MIC (µg/mL)
# unit: µg/mL | format: bare number

Worked examples follow.
- CC(C)Oc1c(N)ccc(C(=O)Nc2ccc(C(=O)N[C@@H](CC(N)=O)C(=O)Nc3ccc(C(=O)Nc4ccc(C(=O)Nc5ccc(C(=O)O)cc5)c(O)c4OC(C)C)cc3)cc2)c1O: 2
- CC(C)Oc1c(NC(=O)c2ccc(NC(=O)[C@H](CC(N)=O)NC(=O)c3ccc(NC(=O)c4ccc(C#N)cc4)cc3)cc2)ccc(C(=O)Nc2ccc(C(=O)O)cc2)c1O: 0.25
- CC(C)Oc1c(NC(=O)c2ccc(NC(=O)c3ccc(NC(=O)[C@H](CC(N)=O)NC(=O)c4ccc(NC(=O)c5ccc([N+](=O)[O-])cc5)cc4)cc3)c(OC(C)C)c2O)ccc(C(=O)O)c1O: 0.5

Record `CC(C)Oc1c(NC(=O)c2ccc(NC(=O)[C@H](CC(N)=O)NC(=O)c3ccc(NC(=O)c4ccc([N+](=O)[O-])cc4)cc3)cc2)ccc(C(=O)Nc2ccc(C(=O)O)cc2)c1O` : what is its MIC with E. coli WT?
0.06

What MIC appears in the records for this compound with E. coli WT? `C/C(=C\c1ccc(O)cc1)C(=O)Nc1ccc(C(=O)N[C@@H](CC(N)=O)C(=O)Nc2ccc(C(=O)Nc3ccc(C(=O)Nc4ccc(C(=O)O)cc4)c(O)c3OC(C)C)cc2)cc1`
0.13

* * *

- Tested on: S. aureus ATCC-29213
Entries and their MIC
Report as a plain number; the unit µg/mL is understood.

• CC(C)Oc1c(NC(=O)c2ccc(NC(=O)[C@H](CC(N)=O)NC(=O)c3ccc(NC(=O)c4ccc([N+](=O)[O-])cc4)cc3)cc2)ccc(C(=O)Nc2ccc(C(=O)O)cc2)c1O [Compound 28] = 0.5
• C/C(=C\c1ccc(O)cc1)C(=O)Nc1ccc(C(=O)N[C@@H](CC(N)=O)C(=O)Nc2ccc(C(=O)Nc3ccc(C(=O)Nc4ccc(C(=O)O)cc4)c(O)c3OC(C)C)cc2)cc1 [Compound 53] = 0.5
• CC(C)Oc1c(NC(=O)c2ccc(NC(=O)[C@H](CC(N)=O)NC(=O)c3ccc(NC(=O)c4ccc(C#N)cc4)cc3)cc2)ccc(C(=O)Nc2ccc(C(=O)O)cc2)c1O [Compound 44] = 0.5
• CC(C)Oc1c(NC(=O)c2ccc(NC(=O)c3ccc(NC(=O)[C@H](CC(N)=O)NC(=O)c4ccc(NC(=O)c5ccc([N+](=O)[O-])cc5)cc4)cc3)c(OC(C)C)c2O)ccc(C(=O)O)c1O [Compound 61] = 0.05

Now look at this entry.
# get_value(readout= MIC, system= S. aureus ATCC-29213) for CC(C)Oc1c(NC(=O)c2ccc(NC(=O)c3ccc(NC(=O)[C@H](CC(N)=O)NC(=O)c4ccc(NC(=O)c5ccc(C#N)cc5)cc4)cc3)c(OC(C)C)c2O)ccc(C(=O)O)c1O [Compound 62]
0.025

* * *

// reported MIC per item
- Test system: S. aureus Newman
- EXPERIMENT_DESCRIPTION: MIC, microbroth dilution susceptibility assay
- Type: cell-based
- CONDITION_SET: Staphylococcus aureus, NEWMAN; small panel, Tables 1a/1b; read-out: MIC S. aureus Newman
# output: bare number, implied unit µg/mL

Reference set, count: 2
- C/C(=C\c1ccc(O)cc1)C(=O)Nc1ccc(C(=O)N[C@@H](CC(N)=O)C(=O)Nc2ccc(C(=O)Nc3ccc(C(=O)Nc4ccc(C(=O)O)cc4)c(O)c3OC(C)C)cc2)cc1: 0.25
- Cc1cc(C#N)ccc1C(=O)Nc1ccc(C(=O)N[C@@H](CC(N)=O)C(=O)Nc2ccc(C(=O)Nc3ccc(C(=O)Nc4ccc(C(=O)O)cc4)c(O)c3OC(C)C)cc2)cc1: 64

Kindly consider the entry below.
Requested read-out: MIC. Entry: `CC(C)COc1c(NC(=O)c2ccc(NC(=O)[C@H](CC(N)=O)NC(=O)c3ccc(NC(=O)c4ccc(C#N)cc4)cc3)cc2)ccc(C(=O)Nc2ccc(C(=O)O)cc2)c1O`
0.25

* * *

- Tested on: S. aureus Newman
- EXPERIMENT_DESCRIPTION: MIC, microbroth dilution susceptibility assay
- Format: cell-based
- CONDITION_SET: Staphylococcus aureus, NEWMAN; small panel, Tables 1a/1b; read-out: MIC S. aureus Newman
Response field label takes Yes when MIC is strictly below 1 µg/mL and No in all other cases.

Study these solved cases before continuing.
- CC(C)Oc1c(NC(=O)c2ccc(NC(=O)[C@H](CC(N)=O)NC(=O)c3ccc(NC(=O)c4ccc(N)cc4)cc3)cc2)ccc(C(=O)Nc2ccc(C(=O)O)cc2)c1O: No
- CC(C)Oc1c(NC(=O)c2ccc(NC(=O)[C@H](CC(N)=O)NC(=O)c3ccc(NC(=O)c4ccc(C#N)cc4)cc3)cc2)ccc(C(=O)Nc2ccc(C(=O)O)cc2)c1O: Yes
- C/C(=C\c1ccc(C#N)cc1)C(=O)Nc1ccc(C(=O)N[C@@H](CC(N)=O)C(=O)Nc2ccc(C(=O)Nc3ccc(C(=O)Nc4ccc(C(=O)O)cc4)c(O)c3OCC(C)C)cc2)cc1: Yes
- CO[C@@H](C(N)=O)[C@H](NC(=O)c1ccc(NC(=O)/C(C)=C/c2ccc(C#N)cc2)cc1)C(=O)Nc1ccc(C(=O)Nc2ccc(C(=O)Nc3ccc(C(=O)O)cc3)c(O)c2OC(C)C)cc1: No
- CC(C)Oc1c(NC(=O)c2ccc(NC(=O)[C@H](CC(N)=O)NC(=O)c3ccc(NC(=O)c4ccc(C#N)cc4)cc3)cc2)ccc(C(=O)Nc2cc(C(=O)O)n(C)c2)c1O: No
- CC(=O)Nc1ccc(C(=O)Nc2ccc(C(=O)N[C@@H](CC(N)=O)C(=O)Nc3ccc(C(=O)Nc4ccc(C(=O)Nc5ccc(C(=O)O)cc5)c(O)c4OC(C)C)cc3)cc2)cc1: No

Take the compound `CC(C)Oc1c(NC(=O)c2ccc(NC(=O)[C@H](CC(N)=O)NC(=O)c3ccc(NC(=O)c4ccccc4[N+](=O)[O-])cc3)cc2)ccc(C(=O)Nc2ccc(C(=O)O)cc2)c1O` and say whether its MIC is less than 1 µg/mL.
No

Given the entry `CC(C)Oc1c(NC(=O)c2ccc(NC(=O)[C@H](CC(N)=O)NC(=O)c3ccc(NC(=O)c4ccc(C#N)cc4)cc3)cc2)ccc(C(=O)Nc2ccn(C)c2)c1O` , would its reported MIC be below 1 µg/mL?
No

* * *

- Test system: E. coli WT DSM-1116
- EXPERIMENT_DESCRIPTION: MIC, microbroth dilution susceptibility assay
- Type: cell-based
- CONDITION_SET: Escherichia coli, DSM1116; small panel, Tables 1a/1b; no visual growth after approx. 16 h; read-out: MIC E. coli WT DSM-1116
Below, each entry is listed alongside its reported MIC.

Guide cases for MIC, answers given:
- CC(C)Oc1c(NC(=O)c2ccc(NC(=O)[C@H](CC(N)=O)NC(=O)c3ccc(NC(=O)c4ccc([N+](=O)[O-])c(OC(C)C)c4O)cc3)cc2)ccc(C(=O)Nc2ccc(C(=O)O)cc2)c1O: > 64 µg/mL
- CC(C)Oc1c(NC(=O)c2ccc(NC(=O)[C@H](CC(N)=O)NC(=O)c3ccc(NC(=O)c4ccc(C#N)c(F)c4)cc3)cc2)ccc(C(=O)Nc2ccc(C(=O)O)cc2)c1O: 0.25 µg/mL

Continue with the next molecule.
Reported MIC for E. coli WT DSM-1116, given `CC(C)Oc1c(NC(=O)c2ccc(NC(=O)[C@H](CC(N)=O)NC(=O)c3ccc(NC(=O)c4ccc(C#N)cc4)cc3)cc2)ccc(C(=O)Nc2cccc(C(=O)O)c2)c1O` ?
0.5 µg/mL

* * *

Here the recorded MIC is given for each entry.
- Test system: E. coli ΔtolC
- EXPERIMENT_DESCRIPTION: microbe, parasite or virus in culture
- Assay type: cell-based
- CONDITION_SET: Escherichia coli, 16 h, read-out: MIC E. coli ΔtolC, small panel, Tables 1a/1b; no visual growth after approx. 16 h
Form entry: value (µg/mL) — number only.

Solved entries:
• CC(C)Oc1c(NC(=O)c2ccc(NC(=O)[C@H](CC(N)=O)NC(=O)c3ccc(NC(=O)c4ccc(C#N)cc4)cc3)cc2)ccc(C(=O)Nc2ccncc2)c1O = 0.03
• CC(C)Oc1c(NC(=O)c2ccc(NC(=O)[C@H](CC(N)=O)NC(=O)c3ccc(NC(=O)c4ccc(C#N)cc4)cc3)cc2)ccc(C(=O)Nc2cccc(C(=O)O)c2)c1O = 0.03
• C/C(=C/c1ccc(C#N)cc1)C(=O)Nc1ccc(C(=O)N[C@@H](CC(N)=O)C(=O)Nc2ccc(C(=O)Nc3ccc(C(=O)Nc4ccc(C(=O)O)cc4)c(O)c3OC(C)C)cc2)cc1 = 0.25
• CC(C)Oc1c(NC(=O)c2ccc(NC(=O)[C@H](CC(N)=O)NC(=O)c3ccc(NC(=O)c4ccc(C#N)cc4)cc3)cc2)ccc(C(=O)N[C@@H]2CONC2=O)c1O = 0.5
• CC(C)Oc1c(NC(=O)c2ccc(NC(=O)[C@H](CC(N)=O)NC(=O)c3ccc(NC(=O)C(C)Oc4ccccc4)cc3)cc2)ccc(C(=O)Nc2ccc(C(=O)O)cc2)c1O (some centres unmarked) = 4
• CC(C)Oc1c(NC(=O)c2ccc(NC(=O)[C@H](CC(N)=O)NC(=O)c3ccc(NC(=O)c4ccc(C#N)cc4)cc3)cc2)ccc(C(=O)NCc2ccc(C(=O)O)cc2)c1O = 0.25
• CC(C)Oc1c(NC(=O)c2ccc(NC(=O)[C@H](CC(N)=O)NC(=O)c3ccc(C#Cc4ccc(C#N)cc4)cc3)cc2)ccc(C(=O)Nc2ccc(C(=O)O)cc2)c1O = 0.06
• Cc1cc(C#N)ccc1C(=O)Nc1ccc(C(=O)N[C@@H](CC(N)=O)C(=O)Nc2ccc(C(=O)Nc3ccc(C(=O)Nc4ccc(C(=O)O)cc4)c(O)c3OC(C)C)cc2)cc1 = 0.03

Which MIC value is on record for `C/C(=C\c1ccc(O)cc1)C(=O)Nc1ccc(C(=O)N[C@@H](CC(N)=O)C(=O)Nc2ccc(C(=O)Nc3ccc(C(=O)Nc4ccc(C(=O)O)cc4)c(O)c3OC(C)C)cc2)cc1` ?
0.06

Need MIC of `Cc1cc(C(=O)Nc2ccc(C(=O)N[C@@H](CC(N)=O)C(=O)Nc3ccc(C(=O)Nc4ccc(C(=O)Nc5ccc(C(=O)O)cc5)c(O)c4OC(C)C)cc3)cc2)ccc1C#N` , thanks.
0.03

Given the entry `CC(C)Oc1c(NC(=O)c2ccc(NC(=O)[C@H](CC(N)=O)NC(=O)c3ccc(NC(=O)c4ccc(C5(C(F)(F)F)N=N5)cc4)cc3)cc2)ccc(C(=O)Nc2ccc(C(=O)O)cc2)c1O` , report its measured MIC.
8

Could you share which MIC value was measured for `CC(C)Oc1c(NC(=O)c2ccc(NC(=O)[C@H](CC(N)=O)NC(=O)c3ccc(NC(=O)c4ccc(C#N)cc4)cc3)cc2)ccc(C(=O)Nc2ccc(S(=O)(=O)O)cc2)c1O` ?
0.25

Endpoint output: MIC of `CC(C)Oc1c(NC(=O)c2ccc(NC(=O)[C@H](CC(N)=O)NC(=O)c3ccc(NC(=O)c4ccc([N+](=O)[O-])cc4)cc3)cc2)ccc(C(=O)Nc2ccc(C(=O)O)cc2)c1O` . Value?
0.06

# lookup: MIC of `CC(C)Oc1cc(C(=O)Nc2ccc(C(=O)O)cc2)ccc1NC(=O)c1ccc(NC(=O)[C@H](CC(N)=O)NC(=O)c2ccc(NC(=O)c3ccc([N+](=O)[O-])cc3)cc2)cc1`
0.06
